conditions: buffer; pH 7.4; 200.0 µM
Tag: True if measured solubility kinetic is not below 20 µg/mL, False if it is.

Consider the worked cases shown below.
[
  {
    "MOLECULE": "CCOC(=O)N1CCN(C(=O)CSc2nc3nc(C)cc(C)n3n2)CC1",
    "CATEGORY": "True"
  },
  {
    "MOLECULE": "CCN(CC)C(=O)c1ccccc1NC(=O)c1ccccc1C",
    "CATEGORY": "True"
  },
  {
    "MOLECULE": "CC1(/[N+]([O-])=C/c2ccc(F)cc2)CCCCC1=O (stereo not given)",
    "CATEGORY": "True"
  }
]

Qu. Determine whether measured solubility kinetic meets or exceeds 20 µg/mL for Cc1cccc(OP(N)(=O)Oc2cccc(C)c2)c1
Ans. True

Qu. Dear colleague, could you confirm whether CC(C)Oc1ccc(OCCn2c(=S)[nH]c3c(N)ncnc32)cc1 has solubility kinetic at or above 20 µg/mL?
Ans. True

Qu. Tell me whether solubility kinetic is at least 20 µg/mL here: Cc1ccc(-c2nc(C(F)(F)F)cc(=O)[nH]2)cc1
Ans. False
